Exercise: state measured IC50 cell viability for each of the molecules provided.
Tested on: HCT116
Conditions: 72 h; ICRF193 200 nM
Counter-ions that a name gives are not always drawn.

(Q) Fill blank: measured IC50 cell viability of the molecule O=C(O)[C@@H](S)[C@H](S)C(=O)O [(2R,3R)-2,3-Dimercaptosuccinic acid] is ____.
(A) > 45.8 µM

(Q) Param item = CC(C)NCC(O)c1ccccc1Cl (configuration not stated) [Clorprenaline hydrochloride] ; retrieve measured IC50 cell viability.
(A) > 45.8 µM

(Q) What does the data say about its IC50 cell viability? Entry: Cc1c(O)cccc1C(=O)N[C@@H](CSc1ccccc1)[C@H](O)CN1C[C@H]2CCCC[C@H]2C[C@H]1C(=O)NC(C)(C)C [Nelfinavir mesylate]
(A) 20.6 µM

(Q) What measured IC50 cell viability goes with Cc1ccc(C(=O)Oc2ccc(C(O)CNC(C)(C)C)cc2OC(=O)c2ccc(C)cc2)cc1 (configuration not stated) [Bitolterol] ?
(A) > 45.8 µM

(Q) # IC50 cell viability lookup, item CS(=O)(=O)Nc1cc2occ(NC=O)c(=O)c2cc1Oc1ccccc1 [Iguratimod]
(A) > 45.8 µM

(Q) Fill in the blank: the reported IC50 cell viability of CCCCN(CCN(CCCC)C(=O)N1CCOCC1)C(=O)N1CCOCC1 [Dimorpholamine] is ____.
(A) > 45.8 µM

(Q) IC50 cell viability lookup needed for CC1CC(OC(=O)C(O)c2ccccc2)CC(C)(C)C1 (configuration not stated) [Cyclandelate] , thanks.
(A) > 45.8 µM

(Q) Recorded IC50 cell viability for CN(C)C(=O)COC(=O)Cc1ccc(OC(=O)c2ccc(NC(=N)N)cc2)cc1 [Camostat] , please?
(A) > 45.8 µM

(Q) Endpoint output: IC50 cell viability of CC1(C)O[C@@H]2C[C@H]3[C@@H]4CCC5=CC(=O)C=C[C@]5(C)[C@H]4[C@@H](O)C[C@]3(C)[C@]2(C(=O)CO)O1 [Desonide] . Value?
(A) > 45.8 µM

(Q) For the molecule shown here, Cc1cc2cc3c(C)cc(=O)oc3c(C)c2o1 [Trioxsalen] , give the reported IC50 cell viability.
(A) > 45.8 µM

(Q) I have this molecule here, CC[C@H](C)[C@@H]([C@@H](CC(=O)N1CCC[C@H]1[C@H](OC)[C@@H](C)C(=O)NCCc1ccccc1)OC)N(C)C(=O)[C@@H](NC(=O)[C@H](C(C)C)N(C)C)C(C)C [Auristatin PE] , and I need its recorded IC50 cell viability.
(A) 0.00461 µM

(Q) Look at this molecule and give its reported IC50 cell viability. CC(C)(C)NC(=O)[C@@H]1C[C@@H]2CCCC[C@@H]2CN1C[C@@H](O)[C@H](Cc1ccccc1)NC(=O)[C@H](CC(N)=O)NC(=O)c1ccc2ccccc2n1 [Saquinavir]
(A) 20.6 µM

(Q) Need IC50 cell viability, item CC(C)(C)NCC(O)COc1cccc2c1CCC(=O)N2 (configuration not stated) [Carteolol hydrochloride]
(A) > 45.8 µM

(Q) Looking for the measured IC50 cell viability of CC(=O)SC[C@@H](C)C(=O)N1CCC[C@H]1C(=O)N[C@@H](Cc1ccccc1)C(=O)O [Alacepril] , can you help?
(A) > 45.8 µM

(Q) Name the recorded IC50 cell viability for C[C@]12CC[C@@H]3c4ccc(O)cc4CC[C@H]3[C@@H]1CCC2=O [Estrone] .
(A) > 45.8 µM

(Q) I would be grateful if you could share the reported IC50 cell viability for CN1C2CCCC1CC(NC(=O)c1nn(C)c3ccccc13)C2 (configuration not stated) [Granisetron (AB-1001)] .
(A) > 45.8 µM

(Q) Bench note: what IC50 cell viability did Cc1[nH]c(=O)c(C#N)cc1-c1ccncc1 [Milrinone] show?
(A) > 45.8 µM

(Q) Recorded IC50 cell viability of S=c1nc[nH]c2nc[nH]c12 [6-mercaptopurine] , please.
(A) 3.26 µM

(Q) What IC50 cell viability value was documented for this molecule, CCOC(=O)[C@@H](N)CS [L-Cysteine ethyl ester hydrochloride] ?
(A) > 45.8 µM

(Q) What value of measured IC50 cell viability is listed for CCc1ccc(Nc2c(F)c(F)cc(F)c2F)c(CC(=O)O)c1 [ROBENACOXIB] ?
(A) > 45.8 µM

(Q) Value lookup for IC50 cell viability; key = CN(C)C(=O)Oc1cccc([N+](C)(C)C)c1 [Neostigmine bromide]
(A) > 45.8 µM

(Q) // query IC50 cell viability value for entry CCCN1C[C@H](CSC)C[C@@H]2c3cccc4[nH]cc(c34)C[C@H]21 [Pergolide methanesulfonate]
(A) > 45.8 µM

(Q) Any idea what its IC50 cell viability is? The molecule is C=CCOc1ccccc1OCC(O)CNC(C)C (configuration not stated) [Oxprenolol hydrochloride]
(A) > 45.8 µM

(Q) Returns the measured IC50 cell viability for the input molecule. Input: Cc1ccc2nc(N)[nH]c(=O)c2c1Sc1ccncc1 [NOLATREXED HCL]
(A) 20.6 µM

(Q) So what's the measured IC50 cell viability for this one? O=c1cc(CO)occ1O [Kojic acid]
(A) > 45.8 µM

(Q) # get_value(readout='IC50 cell viability', item= COC(=O)N[C@H](C(=O)N1CCC[C@H]1c1ncc(-c2ccc(-c3ccc(-c4cnc([C@@H]5CCCN5C(=O)[C@@H](NC(=O)OC)C(C)C)[nH]4)cc3)cc2)[nH]1)C(C)C [Daclatasvir dihydrochloride] )
(A) 29.1 µM

(Q) Which IC50 cell viability value belongs to CC(C)C[C@H](NC(=O)[C@@H](COC(C)(C)C)NC(=O)[C@H](Cc1ccc(O)cc1)NC(=O)[C@H](CO)NC(=O)[C@H](Cc1c[nH]c2ccccc12)NC(=O)[C@H](Cc1cnc[nH]1)NC(=O)[C@@H]1CCC(=O)N1)C(=O)N[C@@H](CCCNC(=N)N)C(=O)N1CCC[C@H]1C(=O)NNC(N)=O [Goserelin (acetate)] ?
(A) > 45.8 µM

(Q) Which IC50 cell viability is listed for COc1cc(NS(=O)(=O)c2ccc(N)cc2)ncn1 [Sulfamonomethoxine] ?
(A) > 45.8 µM

(Q) Bench note: what IC50 cell viability did NCCC(=O)[N-][C@@H](Cc1c[nH]cn1)C(=O)[O-].[Zn+2] [Polaprezinc] show?
(A) > 45.8 µM

(Q) Which IC50 cell viability value belongs to Cc1ccc(C(=O)c2cc(O)c(O)c([N+](=O)[O-])c2)cc1 [Tolcapone] ?
(A) 29.1 µM

(Q) # IC50 cell viability lookup, item N[C@H](CO)C(=O)O [D-SERINE]
(A) > 45.8 µM

(Q) Look at this molecule and give its reported IC50 cell viability. CS(=O)(=O)OCCCCOS(C)(=O)=O [Busulfan]
(A) > 45.8 µM

---

Test system: HCT116
Experiment: efficacy (maximum % inhibition of viability vs DMSO); higher = more cytotoxic
Conditions: 72 h; ICRF193 0 nM
Record form. Attribute: efficacy. Fill in for each entry.
Don't forget the unit after the number, please.

(Q) Recorded efficacy of CCCC(=O)OC[C@@H](OC(=O)CCC)[C@@H](OC(=O)CCC)[C@H](Cn1c2nc(=O)[nH]c(=O)c-2nc2cc(C)c(C)cc21)OC(=O)CCC [Riboflavin tetrabutyrate] , please.
(A) 64.5%

(Q) # get_value(readout='efficacy', item= CC(C)COc1ccc(CNC(=O)N(Cc2ccc(F)cc2)C2CCN(C)CC2)cc1 [Pimavanserin] )
(A) 96.9%

(Q) Entry under review: CCCC(=O)O[C@]1(C(=O)CCl)[C@H](C)C[C@@H]2[C@@H]3CCC4=CC(=O)C=C[C@]4(C)[C@]3(F)C(=O)C[C@@]21C [Clobetasone butyrate] . Reported efficacy?
(A) 50.4%

---

Tested on: HCT116
Test: efficacy (maximum % inhibition of viability vs DMSO); higher = more cytotoxic
Settings: 72 h; ICRF193 0 nM
measured.quantity: efficacy
State the value with its unit after it.

(Q) Need efficacy, item C1CCC(C(CC2CCCCN2)C2CCCCC2)CC1 (stereo unspecified) [Perhexiline]
(A) 90.2%

(Q) Sample CC[C@@H](C(=O)O)[C@@H]1O[C@@H]([C@@H](C)[C@H](O)[C@H](C)C(=O)[C@H](CC)[C@H]2O[C@]3(C=C[C@@H](O)[C@]4(CC[C@@](C)([C@H]5CC[C@](O)(CC)[C@H](C)O5)O4)O3)[C@H](C)C[C@@H]2C)[C@@H](C)C[C@@H]1C [Narasin] — what was its efficacy?
(A) 80.5%

(Q) Looking for the measured efficacy of CN1CCCN(C(c2ccccc2)c2ccc(Cl)cc2)CC1 (stereo unspecified) [Homochlorcyclizine] , can you help?
(A) 71.7%

(Q) # efficacy lookup, item C[C@H]1C[C@H]2[C@@H]3CCC4=CC(=O)C=C[C@]4(C)[C@@]3(Cl)[C@@H](O)C[C@]2(C)[C@@]1(O)C(=O)CO [Beclomethasone]
(A) 84.6%

(Q) Could you tell me which efficacy is on file for Clc1ccc(C(Cn2ccnc2)OCc2ccsc2Cl)c(Cl)c1 (stereo unspecified) [Tioconazole] ?
(A) 102%

(Q) Tell me the measured efficacy of C[C@@H]1C[C@H]2[C@@H]3CCC4=CC(=O)C=C[C@]4(C)[C@@]3(Cl)[C@@H](O)C[C@]2(C)[C@@]1(OC(=O)c1ccco1)C(=O)CCl [Mometasone furoate] , please.
(A) 102%
